B1: HESX1 (parent)
chain: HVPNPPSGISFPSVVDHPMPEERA

variants of: B1; assay: protein stability index of a GFP-peptide fusion (GPS, HEK-293T) (PSI 1-6); higher = more stable; conditions: c terminus: a fixed tail appended;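 also: lentivirally expressed fusions sorted by FACS into six bins by GFP to DsRed ratio, PSI derived from sequencing read proportions per bin multiplied by bin number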
Lab note: compare protein stability index against 3. Equal or greater, write label 1. Smaller, write label 0.

[[record]]
variant_descriptor = "H17M"
category = "label 0"

[[record]]
variant_descriptor = "D16G"
category = "label 0"

[[record]]
variant_descriptor = "H1M"
category = "label 1"

[[record]]
variant_descriptor = "P6V"
category = "label 0"

[[record]]
variant_descriptor = "V15L"
category = "label 1"

[[record]]
variant_descriptor = "S13C"
category = "label 0"

[[record]]
variant_descriptor = "P5V"
category = "label 0"

[[record]]
variant_descriptor = "P18A"
category = "label 0"

[[record]]
variant_descriptor = "P3L"
category = "label 1"

[[record]]
variant_descriptor = "H1L"
category = "label 1"

[[record]]
variant_descriptor = "M19V"
category = "label 0"

[[record]]
variant_descriptor = "S7I"
category = "label 1"

[[record]]
variant_descriptor = "E21W"
category = "label 0"

[[record]]
variant_descriptor = "P5F"
category = "label 0"

[[record]]
variant_descriptor = "V14S"
category = "label 1"

[[record]]
variant_descriptor = "S10H"
category = "label 0"

[[record]]
variant_descriptor = "S7G"
category = "label 0"

[[record]]
variant_descriptor = "E21N"
category = "label 0"

[[record]]
variant_descriptor = "P18I"
category = "label 0"

[[record]]
variant_descriptor = "S13M"
category = "label 0"

[[record]]
variant_descriptor = "F11K"
category = "label 1"

[[record]]
variant_descriptor = "A24C"
category = "label 0"

